# IC50 values compiled below
- SYSTEM: TRAF6WTStrepII-Ubc13FH interaction (Homo sapiens, UniProt Q9Y4K3)
- Construct: RING-Zincfinger1 (RZ1) domain (residues 50-159) of human TRAF6 wildtype
- TEST SUMMARY: ALPHAScreen TRAF6-Ubc13 interaction assay
- CONDITION INFO: TRAF6 100 nM, Ubc13FH 75 nM; class symbols; read-out: IC50 Alphascreen (inhibition of TRAF6-UBC13 interaction)
ATTRIBUTE MEASURED: IC50

[
  {
    "MOL": "COC(=O)c1ccc(CN2CCN(C(=O)CCc3c(C)nn(-c4ccc5nnc(C)n5n4)c3C)CC2)cc1",
    "ATTRIBUTE MEASURED": "IC50",
    "MEAS VALUE": "≤ 3 µM"
  },
  {
    "MOL": "Cc1nn(-c2ccc3nnc(C)n3n2)c(C)c1CCC(=O)N1CCN(Cc2ccc(Cl)cc2Cl)CC1",
    "ATTRIBUTE MEASURED": "IC50",
    "MEAS VALUE": "≤ 10 µM"
  },
  {
    "MOL": "Cc1nn(-c2ccc3nnc(C)n3n2)c(C)c1CCC(=O)N1CCN(Cc2cccc(C#N)c2Cl)CC1",
    "ATTRIBUTE MEASURED": "IC50",
    "MEAS VALUE": "≤ 10 µM"
  },
  {
    "MOL": "Cc1nn(-c2ccc3nnc(C)n3n2)c(C)c1CCC(=O)N1CCN(Cc2cccc3cccnc23)CC1",
    "ATTRIBUTE MEASURED": "IC50",
    "MEAS VALUE": "≤ 3 µM"
  }
]

* * *

- SYSTEM: TRAF6WTStrepII-Ubc13FH interaction (Homo sapiens)
- Construct: RING-Zincfinger1 (RZ1) domain (residues 50-159) of human TRAF6 wildtype
- TEST SUMMARY: ALPHAScreen TRAF6-Ubc13 interaction assay
- CONDITION INFO: TRAF6 100 nM, Ubc13FH 75 nM; class symbols; read-out: IC50 Alphascreen (inhibition of TRAF6-UBC13 interaction)
pIC50: −log10 of the molar value.

[
  {
    "COMPOUND": "Cc1nn(-c2ccc3nnc(C)n3n2)c(C)c1CCC(=O)N1CCN(Cc2cccc(S(C)(=O)=O)c2)CC1 [Example 155]",
    "pIC50": "≥ 5.52"
  },
  {
    "COMPOUND": "Cc1nn(-c2ccc3nnc(C)n3n2)c(C)c1CCC(=O)N1CCN(Cc2ccccc2Cl)CC1 [Example 144]",
    "pIC50": "≥ 5.00"
  },
  {
    "COMPOUND": "Cc1ccccc1CN1CCN(C(=O)CCc2c(C)nn(-c3ccc4nnc(C)n4n3)c2C)CC1 [Example 160]",
    "pIC50": "≥ 5.52"
  },
  {
    "COMPOUND": "Cc1nn(-c2ccc3nnc(C)n3n2)c(C)c1CCC(=O)N1CCN(Cc2ccc(Cl)c(Cl)c2)CC1 [Example 135]",
    "pIC50": "≥ 5.52"
  },
  {
    "COMPOUND": "Cc1nn(-c2ccc3nnc(C(F)(F)F)n3n2)c(C)c1CCC(=O)N1CCN(Cc2cccc(C#N)c2Cl)CC1 [Example 187]",
    "pIC50": "≥ 5.00"
  },
  {
    "COMPOUND": "Cc1nn(-c2ccc3nnc(C)n3n2)c(C)c1CCC(=O)N1CCN(Cc2ccc(-c3nnn[nH]3)cc2Cl)CC1 [Example 173]",
    "pIC50": "≥ 5.52"
  },
  {
    "COMPOUND": "Cc1nn(-c2ccc3nnc(C)n3n2)c(C)c1CCC(=O)N1CCN(Cc2cccc(-c3nnn[nH]3)c2Cl)CC1 [Example 175]",
    "pIC50": "≥ 5.52"
  }
]

* * *

- SYSTEM: TRAF6WTStrepII-Ubc13FH interaction (Homo sapiens, UniProt Q9Y4K3)
- Construct: RING-Zincfinger1 (RZ1) domain (residues 50-159) of human TRAF6 wildtype
- TEST SUMMARY: ALPHAScreen TRAF6-Ubc13 interaction assay
- CONDITION INFO: TRAF6 100 nM, Ubc13FH 75 nM; class symbols; read-out: IC50 Alphascreen (inhibition of TRAF6-UBC13 interaction)
Recorded IC50 for the following molecules

[
  {
    "MOLECULE": "Cc1nn(-c2ccc3nnc(C)n3n2)c(C)c1CCC(=O)N1CCN(Cc2cccc(C(=O)O)c2)CC1 [Example 99]",
    "IC50": "≤ 3 µM"
  },
  {
    "MOLECULE": "Cc1nn(-c2ccc3nnc(C)n3n2)c(C)c1CCC(=O)N1CCN(Cc2ccc(I)cc2)CC1 [Example 111]",
    "IC50": "≤ 30 µM"
  },
  {
    "MOLECULE": "Cc1nn(-c2ccc3nnc(C)n3n2)c(C)c1CCC(=O)N1CCN(Cc2cccc(NS(C)(=O)=O)c2)CC1 [Example 156]",
    "IC50": "≤ 10 µM"
  },
  {
    "MOLECULE": "Cc1nn(-c2ccc3nnc(C)n3n2)c(C)c1CCC(=O)N1CCNC(Cc2ccccc2)C1 (stereo not shown) [Example 102]",
    "IC50": "≤ 30 µM"
  },
  {
    "MOLECULE": "Cc1nn(-c2ccc3nnc(C)n3n2)c(C)c1CCC(=O)N1CCN(Cc2ccc(C(=O)O)c(F)c2)CC1 [Example 131]",
    "IC50": "≤ 3 µM"
  },
  {
    "MOLECULE": "Cc1nn(-c2ccc3nnc(C)n3n2)c(C)c1CCC(=O)N1CCN(Cc2cccc(-c3nn[nH]n3)c2)CC1 [Example 154]",
    "IC50": "≤ 3 µM"
  },
  {
    "MOLECULE": "Cc1nn(-c2ccc3nnc(C(F)(F)F)n3n2)c(C)c1CCC(=O)N1CCN(Cc2cccc(-c3nnn[nH]3)c2Cl)CC1 [Example 176]",
    "IC50": "≤ 3 µM"
  }
]

* * *

// reported IC50 per item
- SYSTEM: TRAF6WTStrepII-Ubc13FH interaction (Homo sapiens, UniProt Q9Y4K3)
- Construct: RING-Zincfinger1 (RZ1) domain (residues 50-159) of human TRAF6 wildtype
- Sequence (Q9Y4K3 with tags, fused parts or gaps): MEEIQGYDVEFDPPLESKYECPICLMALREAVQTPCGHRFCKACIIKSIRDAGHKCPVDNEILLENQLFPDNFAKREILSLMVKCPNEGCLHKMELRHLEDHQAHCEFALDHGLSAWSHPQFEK
- TEST SUMMARY: ALPHAScreen TRAF6-Ubc13 interaction assay
- CONDITION INFO: TRAF6 100 nM, Ubc13FH 75 nM; class symbols; read-out: IC50 Alphascreen (inhibition of TRAF6-UBC13 interaction)
ATTRIBUTE MEASURED: IC50

[
  {
    "MOL": "Cc1nn(-c2ccc3nnc(C)n3n2)c(C)c1CCC(=O)N1CCN(Cc2ccc(NS(C)(=O)=O)cc2)CC1",
    "SYSTEM": "TRAF6WTStrepII-Ubc13FH interaction (Homo sapiens, UniProt Q9Y4K3)",
    "MEAS VALUE": "≤ 10 µM"
  },
  {
    "MOL": "Cc1nn(-c2ccc3nnc(C)n3n2)c(C)c1CCC(=O)N1CCN(Cc2ccccc2C#N)CC1",
    "SYSTEM": "TRAF6WTStrepII-Ubc13FH interaction (Homo sapiens, UniProt Q9Y4K3)",
    "MEAS VALUE": "≤ 10 µM"
  },
  {
    "MOL": "Cc1nn(-c2ccc3nnc(C)n3n2)c(C)c1CCC(=O)N1CCN(Cc2ccc(-c3ccccc3)cc2)CC1",
    "SYSTEM": "TRAF6WTStrepII-Ubc13FH interaction (Homo sapiens, UniProt Q9Y4K3)",
    "MEAS VALUE": "≤ 10 µM"
  },
  {
    "MOL": "Cc1nn(-c2ccc3nnc(C)n3n2)c(C)c1CCC(=O)N1CCN(Cc2ccc(C(F)(F)F)c(F)c2)CC1",
    "SYSTEM": "TRAF6WTStrepII-Ubc13FH interaction (Homo sapiens, UniProt Q9Y4K3)",
    "MEAS VALUE": "≤ 10 µM"
  },
  {
    "MOL": "Cc1nn(-c2ccc3nnc(C)n3n2)c(C)c1CCC(=O)N1CCN(Cc2cccc(C3CC3)c2)CC1",
    "SYSTEM": "TRAF6WTStrepII-Ubc13FH interaction (Homo sapiens, UniProt Q9Y4K3)",
    "MEAS VALUE": "≤ 3 µM"
  },
  {
    "MOL": "Cc1nn(-c2ccc3nnc(C)n3n2)c(C)c1CCC(=O)N1CCN(Cc2ccc3cccnc3c2)CC1",
    "SYSTEM": "TRAF6WTStrepII-Ubc13FH interaction (Homo sapiens, UniProt Q9Y4K3)",
    "MEAS VALUE": "≤ 10 µM"
  },
  {
    "MOL": "Cc1nn(-c2ccc3nnc(C(F)(F)F)n3n2)c(C)c1CCC(=O)N1CCN(Cc2cc(F)cc(C#N)c2)CC1",
    "SYSTEM": "TRAF6WTStrepII-Ubc13FH interaction (Homo sapiens, UniProt Q9Y4K3)",
    "MEAS VALUE": "≤ 30 µM"
  }
]

Origin of the recorded values: patent US12240854B2
